- testedTarget: T1, MB peptide complexed with HLA-A*02:01 on T2 cells (human)
- T1 construct: whole, on cells
- assayMethodText: flow cytometry, peptide-loaded T2 cells;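 further: binding of single-chain Fv antibody constructs, raised in XenoMouse, to peptide-pulsed T2 cells measured by flow cytometry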
Listed below: Signal/background values for each entry.
experimentalReadout: Signal/background

# binder, recordedMeasurement
measured = [
    ("18179-G12 (scFv, scFv in bacterial lysate, detected with anti-Flag M2) scFv: EVQLLESGAEVKKPGASVKVSCKASGYTFTRNGLSWVRQAPGQGLEWMGWISGYNGDTNYAQKLQGRGTMTTDTSTSTAYMELRSLRSDDTAVYYCARGRATFDYWGQGTLVTVSSGGGGSGGGGSGGGGSELVMTQSPSSLSASVGDRVTITCRASQGISNYLAWYQQKPGKVPKLLISAASTLQSGVPSRFSGSGSGTDFTLTISSLQPEDVATYYCQKYNSAPFTFGPGTKLEIK", 0.9),
    ("18179-E1 (scFv, scFv in bacterial lysate, detected with anti-Flag M2) scFv: EVQLLESGGGLVQPGGSLRLSCAASGFTFSNAWMSWVRQAPGKGLEWVGRIKGNTYGGTTDYAAPVKGRFTISRDDSKNTLYLQMNSLKTEDTAVYYCTTPSYSGSYYNYFSVMDVWGQGTTVTVSSGGGGSGGGGSGGGGSELVMTQSPSSLSASVGDRVTITCRTSQSISSYLNWYQQKPGRAPKLLIFAASSLQGGVPSRFSGSGSGTDFTLTISSLQPEDFATYYCQQTYSMPFTFGPGTKVDIK", 1),
    ("18182-B12 (scFv, scFv in bacterial lysate, detected with anti-Flag M2) scFv: EVQLLESGGGLVQPGGSLRLSCAASGFTFSSYAMSWVRQAPGKGLEWVSAISGSGGGTYYADSVKGRFTISRDNSKNTLYLQMSSLRAEDTAVYYCATGKGVHLGFDYWGQGTLVTVSSGGGGSGGGGSGGGGSELVLTQPPSVSVAPGQTARITCGGNNIGSKSVHWHQQKPGQAPVLVVYDDNDRPSGIPERFSGSNSGNTATLTISRVEAGDEADYYCQVWDYSSDHVVFGGGTKLTVL", 0.8),
    ("18179-H7 (scFv, scFv in bacterial lysate, detected with anti-Flag M2) scFv: EVQLLESGGGLVQPGGSLRLSCAASGFTFSNAWMSWVRQAPGKGLEWVGRIKSKTYGGTTDYAAPVKGRFTISRDDSKNTLYLQMNSLKTEDTAVYYCTTPSYSGSYYNYFSVMDVWGQGTTVTVSSGGGGSGGGGSGGGGSELQMTQSPSSLSASVGDRVTITCRTSQSISSYLNWFQQKPGKAPKLLIFAASSLQSGVPSRFSGSGSGTDFTLTISSLQPEDFATYYCQQSYSSPFTFGPGTKVEIK", 1),
    ("18089-D11 (scFv, scFv in bacterial lysate, detected with anti-Flag M2) scFv: EVQLLESGPVLVKPTQTLTLTCTFSGFSFTTHKMGVDWIRQPPGKALEWLALIYWNDDKRYNPSLQSRLTITKDTSKNQVVLTMTNMDPVDTATYYCAYRRYNWNYENWFDPWGQGTLVTVSSGGGGSGGGGSGGGGSELVMTQSPSSLSASVGDRVTITCRASQSISNYFNWYQQKPGKAPKLLIYAASSLQSGVPSRFSGSGSGTDFTLTISSLQPEDFATYYCQQSYITPFTFGGGTKLEIK", 1.2),
]
